target: the molecule itself; experiment: SEC + native gel or EMSA

{"columns": ["Protein", "stoichiometry N"],
 "data": [
  ["TqsA R61L (natural protein, E. coli K-12, UniProt P0AFS5 1-344, looked up) MAKPIITLNGLKIVIMLGMLVIILCGIRFAAEIIVPFILALFIAVILNPLVQHMVRWRVPLVLAVSILMTIIVMAMVLLLAYLGSALNELTRTLPQYRNSIMTPLQALEPLLQRVGIDVSVDQLAHYIDPNAAMTLLTNLLTQLSNAMSSIFLLLLTVLFMLLEVPQLPGKFQQMMARPVEGMAAIQRAIDSVSHYLVLKTAISIITGLVAWAMLAALDVRFAFVWGLLAFALNYIPNIGSVLAAIPPIAQVLVFNGFYEALLVLAGYLLINLVFGNILEPRIMGRGLGLSTLVVFLSLIFWGWLLGPVGMLLSVPLTIIVKIALEQTAGGQSIAVLLSDLNKE", 5],
  ["TqsA N234L (natural protein, E. coli K-12, UniProt P0AFS5 1-344, looked up) MAKPIITLNGLKIVIMLGMLVIILCGIRFAAEIIVPFILALFIAVILNPLVQHMVRWRVPRVLAVSILMTIIVMAMVLLLAYLGSALNELTRTLPQYRNSIMTPLQALEPLLQRVGIDVSVDQLAHYIDPNAAMTLLTNLLTQLSNAMSSIFLLLLTVLFMLLEVPQLPGKFQQMMARPVEGMAAIQRAIDSVSHYLVLKTAISIITGLVAWAMLAALDVRFAFVWGLLAFALLYIPNIGSVLAAIPPIAQVLVFNGFYEALLVLAGYLLINLVFGNILEPRIMGRGLGLSTLVVFLSLIFWGWLLGPVGMLLSVPLTIIVKIALEQTAGGQSIAVLLSDLNKE", 5],
  ["TqsA P237A (natural protein, E. coli K-12, UniProt P0AFS5 1-344, looked up) MAKPIITLNGLKIVIMLGMLVIILCGIRFAAEIIVPFILALFIAVILNPLVQHMVRWRVPRVLAVSILMTIIVMAMVLLLAYLGSALNELTRTLPQYRNSIMTPLQALEPLLQRVGIDVSVDQLAHYIDPNAAMTLLTNLLTQLSNAMSSIFLLLLTVLFMLLEVPQLPGKFQQMMARPVEGMAAIQRAIDSVSHYLVLKTAISIITGLVAWAMLAALDVRFAFVWGLLAFALNYIANIGSVLAAIPPIAQVLVFNGFYEALLVLAGYLLINLVFGNILEPRIMGRGLGLSTLVVFLSLIFWGWLLGPVGMLLSVPLTIIVKIALEQTAGGQSIAVLLSDLNKE", 5]
]}
